- EXPERIMENT_SUMMARY: cytotoxicity in HPDE-C7 cells, cell-based, fluorescence, HTS (AID 430);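 note: cells exposed to compound for 48 hours before viability readout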
- TEST_CONDITIONS: HPDE-C7 pancreatic duct cells viability, at 10 µM
About 1,100 (1.7%) of roughly 63,000 compounds were called active. Cut-off read from the data, not from the text of the source: active = cytotoxicity above about 50%; inactive = the rest. What follows is part of a selection rich in actives, with near analogues and random picks from the rest. Measured potencies and affinities stand elsewhere.
Possible outcomes: active, inactive

1. COC(=O)c1ccc(Oc2cc(C)nc(-n3nc(C)cc3C)n2)cc1 : active
2. COC(=O)c1sc(NC(=O)COc2ccccc2OC)nc1C : inactive
3. COc1ccc(C(C)=O)c2c(O)cccc12 : inactive
4. COC(=O)c1ccc(Nc2cc(C)nc3nc(C)nn23)cc1 : inactive
5. O=C(O)C1C2C=CC3(CN(CC(O)COc4ccccc4)C(=O)C13)O2 (configuration not stated) : inactive
6. CCOC(=O)N1CCN(CC(=O)Nc2c(C(=O)OC)[nH]c3cccc(Cl)c23)CC1 : inactive
7. O=C1CCCC2=C1C(c1cccs1)n1nc(SCc3ccccc3F)nc1N2 (configuration not stated) : inactive
8. COC(=O)c1ccc(Oc2ccc3nnc(C)n3n2)cc1 : inactive
9. Cc1cc(=O)[nH]c(SCC(=O)NCc2ccco2)n1 : inactive
10. COc1ccc(CCNC(=O)COc2nsnc2N2CCOCC2)cc1OC : inactive
11. CCNc1sc(C(=O)c2cccs2)c(N)c1-c1nc2ccccc2s1 : active
12. CNc1cc(C)nc(-n2nc(C)cc2C)n1 : inactive
13. Cc1cc(NC(=O)CSc2nnc(Cn3c(=O)sc4ccccc43)n2-c2ccccc2C)no1 : inactive
14. Cc1ccc2[nH]c(=O)c(CN(CCN3CCOCC3)C(=O)Nc3ccc(F)cc3)cc2c1 : inactive
15. COC(=O)COc1ccc(S(=O)(=O)NCCC2=CCCCC2)cc1C : inactive
16. COc1ccccc1-c1nnc(Nc2nc3c(OC)cccc3s2)o1 : active
17. CCC(=O)Nc1c2c(nn1-c1ccc(C)cc1C)CSC2 : inactive
18. CCOC(=O)c1sc(NCCNc2nc(C)c(C(=O)OCC)s2)nc1C : inactive
19. COC(=O)COc1ccc(S(=O)(=O)NCCC2=CCCCC2)cc1 : inactive
20. CC(=O)N1c2c(cc(Br)cc2S(=O)(=O)NCC2COc3ccccc3O2)CC1C (configuration not stated) : inactive
21. CCN(CC)CCn1c(OC)cc(=O)[nH]c1=O : inactive
22. Cc1ccc(-c2csc(N3CCC(NS(=O)(=O)c4ccc5c(c4)OCCO5)CC3)n2)cc1 : active
23. Cc1nc(SCc2ccccc2)c(C(F)(F)F)c(=O)[nH]1 : inactive
24. Cc1cc(C)n2nc(SCC(=O)NCc3ccco3)nc2n1 : inactive
25. Cn1c(=O)c2c(ncn2CC(=O)N2CCN(c3ccc(F)cc3)CC2)n(C)c1=O : inactive
26. CCn1c(=O)cc(SCC(=O)Nc2cccnc2)c2ccccc21 : inactive
27. CCc1nccn1S(=O)(=O)c1ccc(C)c(C)c1 : inactive
28. COc1ccc2c3c(cccc13)OCC2=O : inactive
29. Cc1ccc(C)c(CN2C(=O)C3(OCCCO3)c3ccccc32)c1 : inactive
30. CCOC(=O)COc1ccc(S(=O)(=O)NCCC2=CCCCC2)cc1 : active
31. CCNc1sc(C(=O)c2cccs2)c(N)c1C#N : inactive
32. Cc1c(Cl)cccc1NC(=O)CC(C(=O)O)C1CCCO1 (configuration not stated) : inactive
33. COc1ccc(-c2nnc(-c3ccc(N)cc3)o2)cc1 : inactive
34. COc1ccc(-c2nnc(Nc3nc4c(OC)cccc4s3)o2)cc1 : active
35. COc1cc(-c2nnc(-c3cccs3)o2)cc(OC)c1OC : inactive
36. COc1ccc(NS(=O)(=O)c2cc(C)ccc2OC)cc1OC : inactive
37. CNc1sc(C(=O)c2cccs2)c(N)c1-c1nc2ccccc2s1 : inactive
38. CC1CCCC(NS(=O)(=O)c2ccc3c(c2)OCCO3)C1C (configuration not stated) : inactive
39. Cc1cc(C)c2nc(N)sc2c1 : inactive
40. O=C(Nc1ccon1)c1ccc2c(c1)OCO2 : inactive
41. Cc1nc(CNS(=O)(=O)c2ccc3c(c2)OCCO3)cs1 : inactive
42. COc1cc2nc(-c3cccs3)oc(=O)c2cc1OC : inactive
43. Cc1cc(C)n(-c2ccc(C(=O)NC(C)C)cc2)n1 : inactive
44. CCOc1ccc(Nc2cc(C)nc(-n3nc(C)cc3C)n2)cc1 : inactive
45. COc1cccc2c1C(=O)c1c(O)c3c(c(O)c1C2=O)C[C@@](O)(C(=O)CO)C[C@@H]3O[C@H]1C[C@H](N)[C@H](O)[C@H](C)O1 : active
46. COc1ccccc1-c1nnc(NC(=O)c2ccccc2F)o1 : inactive
47. CC(=O)N1c2ccccc2N(Cc2ccc(C)cc2C)C(=O)C1(C)C : active
